Below, each entry is listed with its recorded abundance fitness.
B1: Transcription elongation factor A N-terminal and central domain-containing protein, residues 30 to 77; numbered along this chain, Q8N8B7 (parent)
chain: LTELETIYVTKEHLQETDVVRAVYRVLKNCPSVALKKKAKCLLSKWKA

Variants of: B1
Experiment: abundance fitness (aPCA) (normalised: wild type 0, dead -1); higher = more abundant; growth selection in yeast, the domain comes from the species named
Conditions: Homo sapiens

MUTATION_ID: E16H
abundance fitness: -0.153
//
MUTATION_ID: S44M
abundance fitness: -0.148
//
MUTATION_ID: P31R
abundance fitness: 0.188
//
MUTATION_ID: A34D
abundance fitness: 0.097
//
MUTATION_ID: K11G
abundance fitness: -0.022
//
MUTATION_ID: V9Y
abundance fitness: -0.147
//
MUTATION_ID: H13Q
abundance fitness: -0.078
//
MUTATION_ID: S44K
abundance fitness: -0.312
//
MUTATION_ID: R21K
abundance fitness: -0.246
//
MUTATION_ID: N29C
abundance fitness: 0
//
MUTATION_ID: A34T
abundance fitness: -0.161
//
MUTATION_ID: E5H
abundance fitness: -0.346
//
MUTATION_ID: V26P
abundance fitness: -0.131
//
MUTATION_ID: Q15I
abundance fitness: -0.46
//
MUTATION_ID: T6Q
abundance fitness: 0.08
//
MUTATION_ID: Q15H
abundance fitness: -0.138
